Just for reference, ChEMBL document CHEMBL4184317 is where these values come from.

Entries and their IC50
- TEST_SYSTEM: Bromodomain-containing protein 3 (Homo sapiens, UniProt Q15059)
- Sequence (Q15059 whole entry): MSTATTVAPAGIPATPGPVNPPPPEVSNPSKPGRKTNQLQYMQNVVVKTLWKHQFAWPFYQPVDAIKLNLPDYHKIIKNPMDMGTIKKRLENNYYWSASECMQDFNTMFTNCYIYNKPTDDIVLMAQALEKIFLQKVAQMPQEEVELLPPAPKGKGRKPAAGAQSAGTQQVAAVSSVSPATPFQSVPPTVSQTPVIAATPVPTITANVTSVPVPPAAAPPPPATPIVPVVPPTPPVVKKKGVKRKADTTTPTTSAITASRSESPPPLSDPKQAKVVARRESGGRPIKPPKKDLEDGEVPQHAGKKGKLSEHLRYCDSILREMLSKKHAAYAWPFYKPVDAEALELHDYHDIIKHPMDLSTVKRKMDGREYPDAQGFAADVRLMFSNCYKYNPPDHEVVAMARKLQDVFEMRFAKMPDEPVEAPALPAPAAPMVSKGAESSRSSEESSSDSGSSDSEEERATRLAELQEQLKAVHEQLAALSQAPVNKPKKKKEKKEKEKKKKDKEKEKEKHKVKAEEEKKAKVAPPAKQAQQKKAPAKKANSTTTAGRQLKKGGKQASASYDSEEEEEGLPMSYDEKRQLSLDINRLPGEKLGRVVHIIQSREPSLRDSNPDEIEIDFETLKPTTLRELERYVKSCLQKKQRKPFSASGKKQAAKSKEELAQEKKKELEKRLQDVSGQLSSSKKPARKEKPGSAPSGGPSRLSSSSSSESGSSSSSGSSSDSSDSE
- ASSAY_METHOD_TEXT: Inhibition of BRD3 BD1 (unknown origin) after 30 mins by TR-FRET assay
OBSERVED_PROPERTY: IC50 (nM)

# ENTRY_SMILES, TEST_SYSTEM, READOUT_UNITS, OBSERVED_MEASUREMENT
measured = [
    ("CC(=O)N1c2ccc(C3=CCNCC3)cc2N(Cc2ccccc2CO)C[C@@H]1C1CC1", "Bromodomain-containing protein 3 (Homo sapiens, UniProt Q15059)", "nM", 1260),
    ("CC(=O)N1c2ccc(-c3cnc(C(N)=O)nc3)cc2N(Cc2ccccc2CO)C[C@@H]1C1CC1", "Bromodomain-containing protein 3 (Homo sapiens, UniProt Q15059)", "nM", 794),
]

====

- TEST_SYSTEM: Protein polybromo-1 (Homo sapiens)
- ASSAY_METHOD_TEXT: Binding affinity to human partial length DNA-tagged PBRM1 BD5 expressed in bacteria by BROMOscan method
pKd: −log10 of the molar value.
OBSERVED_PROPERTY: pKd

# ENTRY_SMILES, OBSERVED_PROPERTY, OBSERVED_MEASUREMENT
records = [
    ("CC(=O)N1c2ccc(C3=CCNCC3)cc2N(Cc2ccccc2CO)C[C@@H]1C1CC1", "pKd", "< 4.52"),
]

====

- TEST_SYSTEM: ATPase family AAA domain-containing protein 2 (Homo sapiens, UniProt Q6PL18)
- Sequence (Q6PL18 whole entry, the tested form may be a part): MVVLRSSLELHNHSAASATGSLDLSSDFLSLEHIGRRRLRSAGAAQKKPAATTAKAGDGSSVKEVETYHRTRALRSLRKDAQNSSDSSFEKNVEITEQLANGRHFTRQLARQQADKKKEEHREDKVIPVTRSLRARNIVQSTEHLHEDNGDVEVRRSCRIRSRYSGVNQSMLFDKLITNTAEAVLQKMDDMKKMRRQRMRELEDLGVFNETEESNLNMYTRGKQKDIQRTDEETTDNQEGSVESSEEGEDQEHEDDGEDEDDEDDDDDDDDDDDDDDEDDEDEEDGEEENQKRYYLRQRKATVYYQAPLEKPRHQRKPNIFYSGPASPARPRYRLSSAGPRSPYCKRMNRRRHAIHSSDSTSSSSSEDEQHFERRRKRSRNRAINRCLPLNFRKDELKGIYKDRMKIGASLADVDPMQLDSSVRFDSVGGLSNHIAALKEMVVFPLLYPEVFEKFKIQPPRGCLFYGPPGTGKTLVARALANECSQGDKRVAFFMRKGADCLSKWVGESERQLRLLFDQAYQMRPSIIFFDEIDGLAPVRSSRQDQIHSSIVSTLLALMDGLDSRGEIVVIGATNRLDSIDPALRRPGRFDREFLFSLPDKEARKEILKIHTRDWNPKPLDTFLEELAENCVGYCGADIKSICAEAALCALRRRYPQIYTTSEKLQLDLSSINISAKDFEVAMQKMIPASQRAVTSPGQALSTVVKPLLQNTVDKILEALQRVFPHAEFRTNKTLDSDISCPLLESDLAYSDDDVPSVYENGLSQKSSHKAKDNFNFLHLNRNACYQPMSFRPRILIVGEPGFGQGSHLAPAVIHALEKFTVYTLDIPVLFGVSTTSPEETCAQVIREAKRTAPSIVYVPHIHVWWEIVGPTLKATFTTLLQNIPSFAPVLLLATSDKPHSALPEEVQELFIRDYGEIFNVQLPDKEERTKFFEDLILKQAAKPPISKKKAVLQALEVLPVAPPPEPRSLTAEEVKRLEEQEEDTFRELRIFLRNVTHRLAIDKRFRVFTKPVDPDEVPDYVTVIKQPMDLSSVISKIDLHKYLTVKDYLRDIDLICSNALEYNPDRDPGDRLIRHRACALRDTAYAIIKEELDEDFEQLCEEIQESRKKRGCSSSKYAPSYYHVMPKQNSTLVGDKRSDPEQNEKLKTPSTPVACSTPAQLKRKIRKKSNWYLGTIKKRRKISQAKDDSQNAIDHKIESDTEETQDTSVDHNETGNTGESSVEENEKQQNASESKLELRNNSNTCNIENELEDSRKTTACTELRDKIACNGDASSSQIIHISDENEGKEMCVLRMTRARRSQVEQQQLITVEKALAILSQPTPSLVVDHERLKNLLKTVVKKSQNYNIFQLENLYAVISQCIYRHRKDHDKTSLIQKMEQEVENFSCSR
- ASSAY_METHOD_TEXT: Binding affinity to human partial length DNA-tagged ATAD2A expressed in bacterial by BROMOscan method

# ENTRY_SMILES, Kd
records = [
    ("CC(=O)N1c2ccc(C3=CCNCC3)cc2N(Cc2ccccc2CO)C[C@@H]1C1CC1", "> 30.2 µM"),
]

====

- TEST_SYSTEM: Bromodomain adjacent to zinc finger domain protein 2A (Homo sapiens)
- Sequence (Q9UIF9 whole entry, the tested form may be a part): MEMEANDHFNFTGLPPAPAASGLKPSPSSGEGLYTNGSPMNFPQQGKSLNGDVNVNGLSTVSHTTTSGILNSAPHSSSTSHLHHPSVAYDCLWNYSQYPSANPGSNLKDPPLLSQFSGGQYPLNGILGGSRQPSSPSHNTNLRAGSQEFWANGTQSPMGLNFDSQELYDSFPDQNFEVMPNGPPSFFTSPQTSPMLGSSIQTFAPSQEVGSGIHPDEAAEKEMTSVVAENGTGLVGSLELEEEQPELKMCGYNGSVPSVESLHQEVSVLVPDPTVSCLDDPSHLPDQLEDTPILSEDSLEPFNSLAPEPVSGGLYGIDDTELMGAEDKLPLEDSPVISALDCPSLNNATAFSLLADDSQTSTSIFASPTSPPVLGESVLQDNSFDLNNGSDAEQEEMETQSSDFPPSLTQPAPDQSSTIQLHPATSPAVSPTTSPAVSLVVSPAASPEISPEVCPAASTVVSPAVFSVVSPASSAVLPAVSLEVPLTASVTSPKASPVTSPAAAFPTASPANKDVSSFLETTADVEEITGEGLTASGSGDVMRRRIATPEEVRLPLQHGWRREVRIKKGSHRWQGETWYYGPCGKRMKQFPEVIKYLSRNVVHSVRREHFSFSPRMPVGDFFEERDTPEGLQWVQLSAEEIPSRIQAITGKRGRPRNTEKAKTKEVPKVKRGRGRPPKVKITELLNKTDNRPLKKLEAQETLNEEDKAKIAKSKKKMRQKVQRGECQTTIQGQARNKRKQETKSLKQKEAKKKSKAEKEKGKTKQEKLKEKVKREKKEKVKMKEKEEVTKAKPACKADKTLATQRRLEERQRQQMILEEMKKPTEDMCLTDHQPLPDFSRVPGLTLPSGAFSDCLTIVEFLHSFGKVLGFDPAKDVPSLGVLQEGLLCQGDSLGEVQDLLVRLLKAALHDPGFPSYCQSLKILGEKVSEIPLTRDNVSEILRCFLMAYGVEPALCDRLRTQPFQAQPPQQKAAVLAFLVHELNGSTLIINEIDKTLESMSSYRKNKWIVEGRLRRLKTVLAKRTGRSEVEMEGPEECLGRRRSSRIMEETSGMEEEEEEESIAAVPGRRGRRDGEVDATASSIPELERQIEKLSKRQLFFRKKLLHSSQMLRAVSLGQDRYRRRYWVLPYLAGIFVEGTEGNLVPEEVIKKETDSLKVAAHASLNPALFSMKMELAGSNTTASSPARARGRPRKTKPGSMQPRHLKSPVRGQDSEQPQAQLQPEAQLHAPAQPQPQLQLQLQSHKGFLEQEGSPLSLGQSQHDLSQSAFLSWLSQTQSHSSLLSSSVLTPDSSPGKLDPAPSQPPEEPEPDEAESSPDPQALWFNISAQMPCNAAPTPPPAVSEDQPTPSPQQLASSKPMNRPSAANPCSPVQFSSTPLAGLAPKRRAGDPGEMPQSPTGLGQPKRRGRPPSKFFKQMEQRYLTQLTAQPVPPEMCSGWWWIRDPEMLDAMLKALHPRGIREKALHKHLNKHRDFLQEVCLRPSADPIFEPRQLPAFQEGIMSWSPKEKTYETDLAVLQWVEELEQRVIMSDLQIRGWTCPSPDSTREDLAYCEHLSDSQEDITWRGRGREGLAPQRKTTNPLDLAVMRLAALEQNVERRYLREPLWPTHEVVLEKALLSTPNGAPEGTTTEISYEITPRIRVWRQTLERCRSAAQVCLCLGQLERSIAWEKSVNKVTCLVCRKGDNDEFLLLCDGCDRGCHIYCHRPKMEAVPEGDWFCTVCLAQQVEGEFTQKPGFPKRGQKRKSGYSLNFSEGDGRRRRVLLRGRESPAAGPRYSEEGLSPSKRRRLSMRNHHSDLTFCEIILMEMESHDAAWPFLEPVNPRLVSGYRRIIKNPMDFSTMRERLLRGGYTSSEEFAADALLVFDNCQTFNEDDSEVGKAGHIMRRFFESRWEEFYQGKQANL
- ASSAY_METHOD_TEXT: Binding affinity to human partial length DNA-tagged BAZ2A expressed in bacterial by BROMOscan method
pKd: −log10 of the molar value.
OBSERVED_PROPERTY: pKd

# ENTRY_SMILES, OBSERVED_MEASUREMENT
records = [
    ("CC(=O)N1c2ccc(C3=CCNCC3)cc2N(Cc2ccccc2CO)C[C@@H]1C1CC1", "< 4.52"),
]

====

Endpoint: IC50. System: Bromodomain-containing protein 4 (Homo sapiens, UniProt O60885, Y97A). Items follow.
OBSERVED_PROPERTY: IC50 (nM)

# COMPOUND, TEST_SYSTEM, READOUT_RELATION, OBSERVED_MEASUREMENT
data = [
    ("CCC1CN(Cc2ccccc2)c2cc(-c3cccnc3)ccc2N1C(C)=O (configuration not stated)", "Bromodomain-containing protein 4 (Homo sapiens, UniProt O60885, Y97A)", "=", 100),
    ("CC(=O)N1c2ccccc2N(Cc2cc(C)ccc2C(=O)O)CC1C1CC1 (configuration not stated)", "Bromodomain-containing protein 4 (Homo sapiens, UniProt O60885, Y97A)", "=", 2510),
    ("CC(=O)N1c2ccccc2N(Cc2ccccc2C(N)=O)CC1C1CC1 (configuration not stated)", "Bromodomain-containing protein 4 (Homo sapiens, UniProt O60885, Y97A)", "=", 1260),
    ("CC(=O)N1c2ccccc2N(Cc2ccccc2C#N)CC1C1CC1 (configuration not stated)", "Bromodomain-containing protein 4 (Homo sapiens, UniProt O60885, Y97A)", "=", 2510),
    ("CC(=O)N1CC(C)N(Cc2ccccc2)c2ccccc21 (configuration not stated)", "Bromodomain-containing protein 4 (Homo sapiens, UniProt O60885, Y97A)", "=", 1260),
    ("CC(=O)N1c2ccccc2N(Cc2ccccc2CN)CC1C1CC1 (configuration not stated)", "Bromodomain-containing protein 4 (Homo sapiens, UniProt O60885, Y97A)", "=", 631),
    ("CCC1CN(Cc2ccccc2)c2cc(Br)ccc2N1C(C)=O (configuration not stated)", "Bromodomain-containing protein 4 (Homo sapiens, UniProt O60885, Y97A)", "=", 316),
    ("CCC1CN(Cc2ccccc2)c2ccccc2N1C(C)=O (configuration not stated)", "Bromodomain-containing protein 4 (Homo sapiens, UniProt O60885, Y97A)", "=", 631),
    ("CC(=O)N1c2ccccc2N(Cc2ccccc2CO)CC1C1CC1 (single isomer, unassigned; enantiomer 2)", "Bromodomain-containing protein 4 (Homo sapiens, UniProt O60885, Y97A)", ">", 50100),
    ("CCC1CN(Cc2ccccc2)c2cc(-c3cccc(C(N)=O)c3)ccc2N1C(C)=O (configuration not stated)", "Bromodomain-containing protein 4 (Homo sapiens, UniProt O60885, Y97A)", "=", 63.1),
    ("CCC1CN(Cc2ccccc2)c2cc(-c3ccncc3OC)ccc2N1C(C)=O (configuration not stated)", "Bromodomain-containing protein 4 (Homo sapiens, UniProt O60885, Y97A)", "=", 501),
    ("CCC1CN(Cc2cccc(C)c2)c2ccccc2N1C(C)=O (configuration not stated)", "Bromodomain-containing protein 4 (Homo sapiens, UniProt O60885, Y97A)", "=", 794),
    ("CCOC(=O)c1ccccc1CN1CC(C2CC2)N(C(C)=O)c2ccccc21 (configuration not stated)", "Bromodomain-containing protein 4 (Homo sapiens, UniProt O60885, Y97A)", "=", 1000),
    ("COc1ccccc1CN1CC(C2CC2)N(C(C)=O)c2ccccc21 (configuration not stated)", "Bromodomain-containing protein 4 (Homo sapiens, UniProt O60885, Y97A)", "=", 398),
    ("CC(=O)N1c2ccccc2N(Cc2cccc(O)c2)CC1C1CC1 (configuration not stated)", "Bromodomain-containing protein 4 (Homo sapiens, UniProt O60885, Y97A)", "=", 631),
    ("CC(=O)N1c2ccccc2N(Cc2ccccc2CC(=O)O)CC1C1CC1 (configuration not stated)", "Bromodomain-containing protein 4 (Homo sapiens, UniProt O60885, Y97A)", "=", 1000),
    ("CC(=O)N1c2ccc(C3=CCNCC3)cc2N(Cc2ccccc2CO)C[C@@H]1C1CC1", "Bromodomain-containing protein 4 (Homo sapiens, UniProt O60885, Y97A)", "=", 63.1),
    ("CC(=O)N1CCN(Cc2cccc(C)c2)c2ccccc21", "Bromodomain-containing protein 4 (Homo sapiens, UniProt O60885, Y97A)", "=", 501),
    ("CCC1CN(Cc2ccccc2)c2cc(C3=CCNCC3)ccc2N1C(C)=O (configuration not stated)", "Bromodomain-containing protein 4 (Homo sapiens, UniProt O60885, Y97A)", "=", 158),
    ("CC(=O)N1c2ccccc2N(Cc2ccccc2N(C)C)CC1C1CC1 (configuration not stated)", "Bromodomain-containing protein 4 (Homo sapiens, UniProt O60885, Y97A)", "=", 501),
    ("CCC1CN(Cc2ccccc2)c2cc(-c3cnc(C#N)nc3)ccc2N1C(C)=O (configuration not stated)", "Bromodomain-containing protein 4 (Homo sapiens, UniProt O60885, Y97A)", "=", 100),
    ("CCC1CN(Cc2ccccc2)c2cc(-c3cnc(C(N)=O)nc3)ccc2N1C(C)=O (configuration not stated)", "Bromodomain-containing protein 4 (Homo sapiens, UniProt O60885, Y97A)", "=", 100),
]
